# condition.context: human, hepatocytes, 4 h, 1 µM
test.readout: CLH(app) (µL/min)

[[record]]
record_smiles = "CC(C)n1cc(C(=O)c2cncc(NC(=O)Cn3ccc(C4CC4)n3)c2)c2cnccc21"
test_readout = "CLH(app)"
result = 23


1. CC(C)n1cc(C(=O)c2cncc(NC(=O)Cn3ccc(C4CC4)n3)c2)c2cncnc21
2. CC(C)n1cc(C(=O)c2cncc(NC(=O)Cc3ccc(C#N)cc3)c2)c2c(N)ncnc21
3. CC(C)n1cc(C(=O)c2cncc(NC(=O)Cn3ccc(C4CC4)n3)c2)c2cnc(N)nc21
4. CC(C)n1cc(C(=O)c2cncc(NC(=O)Cc3ccc(Cl)cc3)c2)c2cncnc21
Order field: CLH(app) | Direction: descending (largest first) Give the labels in the order specified.
4, 3, 1, 2

* * *

# tested.system: Voltage-gated inwardly rectifying potassium channel KCNH2 (Homo sapiens, UniProt Q12809)
# Sequence (Q12809 whole entry): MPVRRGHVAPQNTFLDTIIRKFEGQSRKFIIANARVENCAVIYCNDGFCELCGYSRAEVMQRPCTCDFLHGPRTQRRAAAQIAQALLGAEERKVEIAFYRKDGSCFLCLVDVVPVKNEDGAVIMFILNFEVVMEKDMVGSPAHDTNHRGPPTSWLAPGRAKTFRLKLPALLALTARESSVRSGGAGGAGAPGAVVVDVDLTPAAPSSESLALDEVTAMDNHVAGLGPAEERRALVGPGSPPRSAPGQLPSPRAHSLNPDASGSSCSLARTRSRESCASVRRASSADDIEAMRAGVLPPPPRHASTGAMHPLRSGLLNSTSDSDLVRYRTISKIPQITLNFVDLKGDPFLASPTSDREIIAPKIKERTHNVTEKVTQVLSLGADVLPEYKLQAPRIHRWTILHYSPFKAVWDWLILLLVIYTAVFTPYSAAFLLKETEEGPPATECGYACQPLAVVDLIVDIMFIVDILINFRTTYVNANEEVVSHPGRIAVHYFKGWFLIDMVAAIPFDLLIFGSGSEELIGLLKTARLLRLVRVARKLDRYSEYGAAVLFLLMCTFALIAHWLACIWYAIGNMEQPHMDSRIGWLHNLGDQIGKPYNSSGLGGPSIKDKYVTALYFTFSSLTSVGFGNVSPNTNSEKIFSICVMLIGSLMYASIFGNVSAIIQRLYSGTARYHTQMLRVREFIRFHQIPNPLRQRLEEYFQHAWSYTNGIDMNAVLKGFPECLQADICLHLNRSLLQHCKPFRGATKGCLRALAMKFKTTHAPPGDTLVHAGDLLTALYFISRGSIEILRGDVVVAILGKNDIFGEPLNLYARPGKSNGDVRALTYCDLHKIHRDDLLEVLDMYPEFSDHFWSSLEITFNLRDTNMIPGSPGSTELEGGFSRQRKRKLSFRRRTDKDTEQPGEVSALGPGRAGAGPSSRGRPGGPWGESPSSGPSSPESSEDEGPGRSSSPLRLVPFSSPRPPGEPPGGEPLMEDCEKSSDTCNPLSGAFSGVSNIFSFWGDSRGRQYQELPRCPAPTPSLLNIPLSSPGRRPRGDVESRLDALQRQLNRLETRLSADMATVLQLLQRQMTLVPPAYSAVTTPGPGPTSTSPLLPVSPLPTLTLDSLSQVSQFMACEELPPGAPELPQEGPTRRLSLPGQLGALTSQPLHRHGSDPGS
test.readout: IC50 (nM)
The reply should contain only the number, in nM.

Give me measured IC50, please, for this compound: `CC(C)n1cc(C(=O)c2cncc(NC(=O)Cn3ccc(C(F)(F)F)n3)c2)c2cnccc21`
1600

* * *

# Tested on: MDR1 (P-gp)
# assay.details: in vitro
# condition.context: dog, MDCK-MDR1
test.readout: efflux ratio

Below are worked cases with known answers.
[[record]]
record_smiles = "CC(C)n1cc(C(=O)c2cncc(NC(=O)Cc3ccc(C#N)cc3)c2)c2c(N)ncnc21"
result = 27

[[record]]
record_smiles = "CC(C)n1cc(C(=O)c2ccnc(NC(=O)Cc3ccc(F)cc3F)c2)c2c(N)ncnc21"
result = 10.9


I. CC(C)n1cc(C(=O)c2cncc(NC(=O)Cn3ccc(C4CC4)n3)c2)c2cnccc21
II. CC(C)n1cc(C(=O)c2cncc(NC(=O)Cn3ccc(C4CC4)n3)c2)c2cncc(F)c21
III. CC(C)n1cc(C(=O)c2cncc(NC(=O)Cn3ccc(C4CC4)n3)c2)c2cncnc21
Rank ascending by efflux ratio. Respond with the label ranking, as requested.
II, III, I

* * *

# assay.details: Volume of distribution in rat at 1 mg/kg, iv
# Assay type: ADME, organism-based
# condition.context: in vivo, read-out: Vdss
test.readout: Vd (L/kg)
Numbers only; they are read as L/kg.

Please supply the value of reported Vd for the item `CC(C)n1cc(C(=O)c2cncc(NC(=O)Cn3ccc(C(F)(F)F)n3)c2)c2cnccc21`
1.5

* * *

# assay.details: physchem
# condition.context: octanol/water, pH 7.4
test.readout: logD

# count of solved cases: 3
[[record]]
record_smiles = "CC(C)n1cc(C(=O)c2cncc(NC(=O)Cn3ccc(C4CC4)n3)c2)c2cncc(F)c21"
test_readout = "logD"
result = 3.5

[[record]]
record_smiles = "CC(C)n1cc(C(=O)c2cncc(NC(=O)Cc3ccc(C#N)cc3)c2)c2c(N)ncnc21"
test_readout = "logD"
result = 2.5

[[record]]
record_smiles = "CC(C)n1cc(C(=O)c2cncc(NC(=O)Cc3ccc(Cl)cc3)c2)c2cnc(N)nc21"
test_readout = "logD"
result = 4.2


P. CC(C)n1cc(C(=O)c2ccnc(NC(=O)Cc3ccc(F)cc3F)c2)c2c(N)ncnc21
Q. CC(C)n1cc(C(=O)c2cncc(NC(=O)Cn3ccc(C4CC4)n3)c2)c2cnc(N)nc21
API: POST /compare with P and Q ; response names the item with higher logD. Answer = label.
P
